System: MIWI (PIWIL1) piRISC loaded with L1MC piRNA (30 nt);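 note: 1 nM active piRISC with 0.1 nM target library at 33 °C single turnover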
ASSAY_SUMMARY: pre-steady-state target cleavage rate (min^-1); MIWI and MILI are mouse PIWI proteins and EfPiwi is from a freshwater sponge; tags in brackets are library labels; higher = faster piRNA-guided slicing of the target;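 note: 1 nM active piRISC with 0.1 nM target library at 33 °C single turnover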
CONDITION_INFO: guide: L1MC piRNA 5'p-UAACUAAAUACUAUGCAAGCUGUAGGUCCU; auxiliary factor: none (no GTSF1)
The full ranking holds about 8,200 sequences; the median of “pre-steady-state target cleavage rate” is about 0.024, and the highest 2% start at about 1.3. Many of the other results were omitted from the sample, so the highest values are more common in it than they were.
Below: a set of entries, each annotated with reported pre-steady-state target cleavage rate.
Please give only the number in your answer, with no unit.

[[record]]
sequence_string = "ACGACCUACUGCUUGCAUAGUAUUUAGUUA"
experimental_result = 0.0792

[[record]]
sequence_string = "UCCAGCUACACCUUGCAUAGUAUUUAGUUA"
experimental_result = 0.0443


// Input: UCCUGGAUCAGGUUGCAAAGUAUUUAGUUA . Output its pre-steady-state target cleavage rate only.
0.0061

Answer with the recorded pre-steady-state target cleavage rate of UCCUCCUACUGCUUGCUUAGUAUUUAGUUA only.
0.03

Complete the entry with pre-steady-state target cleavage rate for UGCACCUACUGCUUGCAUAGUAUUUAGUUA
0.0725

// fetch pre-steady-state target cleavage rate given entry UCGACCUACUGCUUGCUUAGUAUUUAGUUA
0.031

Determine its reported pre-steady-state target cleavage rate: UCGACCUACUGCUUGCAUAGUAUUUAGAUA
0.0197

Using known records, supply pre-steady-state target cleavage rate for UGGACCUACAGCUUGCUAAGUAUUUAGUUA
0.00384

Return the recorded pre-steady-state target cleavage rate value; entry: AGGACCUACUGCUUGCAUAGUAUUUAGUUA
0.0777

# return recorded pre-steady-state target cleavage rate for entry UGGACCUACUGCUUGCAUAGUAUUUAGUAA
0.0421

In one line, give reported pre-steady-state target cleavage rate of the entry UCCACCUACUGCUUGCAUAGUAUUUAGUUA .
0.0467

For UCGACCUACUGCUUGCAUAGUAUUUAGUAA , write its pre-steady-state target cleavage rate.
0.0434

For the sequence UCCACCUACUGCUUGCUUAGUAUUUAGUUA , give its reported pre-steady-state target cleavage rate.
0.0276
